assay: Evaluation of brain penetration in mice (blood and brain concentration at brain Cmax); assay type: in vivo, mouse; conditions: male, C57BL/6J, mouse, brain/plasma, po, 1 mg/kg, 1 mg/kg single oral dose, C57BL/6J mice; read-out: Concentration in brain/in blood ratio at brain Cmax
# Kp annotations
Note: the reply should be a number with no unit written.

These solved cases illustrate the format of a correct answer.
# COMPOUND, Kp
records = [
    ("C[C@H](CN1CCC[C@](C)(O)C1)[C@H]1CC[C@H]2/C(=C/C=C3C[C@@H](O)C[C@H](O)C3)CCC[C@]12C [Compound C039]", 0.77),
    ("C=C1[C@H](O)CC(=C/C=C2\\CCC[C@]3(C)[C@@H]([C@H](C)CCN4CCOCC4)CC[C@@H]23)C[C@H]1O [Compound D024]", 1.97),
    ("C=C1/C(=C\\C=C2/CCC[C@]3(C)[C@@H]([C@@H](C)CN4CC[C@H](F)C4)CC[C@@H]23)C[C@@H](O)C[C@@H]1O [Compound B018]", 0.63),
    ("C[C@H](CN1CC[C@@H](C(F)F)C1)[C@H]1CC[C@H]2/C(=C/C=C3C[C@@H](O)C[C@H](O)C3)CCC[C@]12C [Compound B026]", 1.76),
    ("C[C@H](CCN1CCOCC1)[C@H]1CC[C@H]2/C(=C/C=C3C[C@@H](O)C[C@H](O)C3)CCC[C@]12C [Compound D023]", 1.03),
    ("C[C@H](CN1CC[C@@H](C(C)(F)F)C1)[C@H]1CC[C@H]2/C(=C/C=C3C[C@@H](O)C[C@H](O)C3)CCC[C@]12C [Compound B034]", 2.24),
]

Kp measured on C[C@H](CN1CC[C@@H](CCC(F)F)C1)[C@H]1CC[C@H]2/C(=C/C=C3C[C@@H](O)C[C@H](O)C3)CCC[C@]12C [Compound B064] = 0.53

Measured Kp, C=C1/C(=C\C=C2/CCC[C@]3(C)[C@@H]([C@H](C)CN4CC[C@H](C(F)F)C4)CC[C@@H]23)C[C@@H](O)[C@H](C)[C@@H]1O [Compound B021] : 0.74

compound C=C1[C@H](O)CC(=C/C=C2\CCC[C@]3(C)[C@@H]([C@H](C)CN4CCC(CC(F)F)CC4)CC[C@@H]23)C[C@H]1O [Compound C059] , Kp observed: 1.44

compound C=C1[C@H](O)CC(=C/C=C2\CCC[C@]3(C)[C@@H]([C@H](C)CN4CCC(C(C)(F)F)CC4)CC[C@@H]23)C[C@H]1O [Compound C055] , Kp observed: 1.78

Kindly note the recorded Kp for C[C@H](CN1CC[C@@H](OCC(F)F)C1)[C@H]1CC[C@H]2/C(=C/C=C3C[C@@H](O)C[C@H](O)C3)CCC[C@]12C [Compound B058] , which is 0.86

The recorded Kp for entry C=C1/C(=C\C=C2/CCC[C@]3(C)[C@@H]([C@H](C)CN4CC[C@H](CC(F)F)C4)CC[C@@H]23)C[C@@H](O)C[C@@H]1O [Compound B036] equals 1.12

Looking up C=C1[C@H](O)CC(=C/C=C2\CCC[C@]3(C)[C@@H]([C@@H](C)CN4CCC(C(F)F)CC4)CC[C@@H]23)C[C@H]1O [Compound C019] , I see its Kp listed as 1.83

Form: compound = C[C@H](CN1CC[C@@H](CC(F)F)C1)[C@H]1CC[C@H]2/C(=C/C=C3C[C@@H](O)C[C@H](O)C3)CCC[C@]12C [Compound B043] ; Kp = 1.08

Documented Kp of C=C1/C(=C\C=C2/CCC[C@]3(C)[C@@H]([C@H](C)CN4CC[C@H](C(C)(F)F)C4)CC[C@@H]23)C[C@@H](O)[C@H](C)[C@@H]1O [Compound B029] : 0.97

The recorded Kp for C=C1[C@H](O)CC(=C/C=C2\CCC[C@]3(C)[C@@H]([C@H](C)CN4CC[C@@H](C(F)F)C4)CC[C@@H]23)C[C@H]1O [Compound B027] is 3.29

In plain terms, C=C1/C(=C\C=C2/CCC[C@]3(C)[C@@H]([C@@H](C)CN4CCC(O)(C(F)(F)F)CC4)CC[C@@H]23)C[C@@H](O)[C@H](C)[C@@H]1O [Compound C006] has a documented Kp of 0.47

get_value(item= C=C1[C@H](O)CC(=C/C=C2\CCC[C@]3(C)[C@@H]([C@H](C)CN4CC[C@H](OCC(F)F)C4)CC[C@@H]23)C[C@H]1O [Compound B055] , readout=Kp) returns 1.06

compound C[C@H](CN1CCC(O)(C(F)(F)F)C1)[C@H]1CC[C@H]2/C(=C/C=C3C[C@@H](O)C[C@H](O)C3)CCC[C@]12C (single isomer, unassigned) [Compound B045a] , Kp observed: 0.35

// sample C[C@H](CN1CC[C@H](CC(F)F)C1)[C@H]1CC[C@H]2/C(=C/C=C3C[C@@H](O)C[C@H](O)C3)CCC[C@]12C [Compound B042] , its Kp was 0.75

Please fill in: Kp reported for C=C1[C@H](O)CC(=C/C=C2\CCC[C@]3(C)[C@@H]([C@H](C)CN4CCCC(O)(C(F)F)C4)CC[C@@H]23)C[C@H]1O (single isomer, unassigned) [Compound C036a] = 0.67

// field: Kp; key: C[C@H](CN1CC[C@H](C(F)F)C1)[C@H]1CC[C@H]2/C(=C/C=C3C[C@@H](O)C[C@H](O)C3)CCC[C@]12C [Compound B022] ; value = 1.67

Recorded result, C=C1/C(=C\C=C2/CCC[C@]3(C)[C@@H]([C@H](C)CN4CC[C@@H](C(F)F)C4)CC[C@@H]23)C[C@@H](O)C[C@@H]1O [Compound B024] , Kp: 1.51
